# ASSAY_REMARKS: Equilibrium solubility
# Type: physicochemical
# MEASUREMENT_CONTEXT: pH 7.4, aqueous buffer, thermodynamic from solid; read-out: Equilibrium solubility at pH 7.4
solubility thermodynamic reference

{"COMPOUND": "COc1c(Nc2ncc(Cl)c(N[C@H]3[C@@H](C(N)=O)[C@@H]4C=C[C@H]3C4)n2)ccc2c1CC[C@@H](N1CCOCC1)CC2 [CEP-28122]", "solubility thermodynamic / µg/mL": 13}
{"COMPOUND": "CNC(=O)c1ccccc1Nc1nc(Nc2ccc3c(c2OC)CCC[C@H](N2CCN(CCO)CC2)C3)ncc1Cl [CEP-37440]", "solubility thermodynamic / µg/mL": 280}

----------
# ASSAY_REMARKS: Mouse bioavailability
# Type: in vivo
# MEASUREMENT_CONTEXT: Scid, mouse, in vivo, po

{"SMILES_NOTATION": "CNC(=O)c1ccccc1Nc1nc(Nc2ccc3c(c2OC)CCC[C@H](N2CCN(CCO)CC2)C3)ncc1Cl", "bioavailability, %": 99}

----------
# TARGET_DESC: Histamine H2 (Homo sapiens, UniProt P25021)
# Sequence (P25021 whole entry): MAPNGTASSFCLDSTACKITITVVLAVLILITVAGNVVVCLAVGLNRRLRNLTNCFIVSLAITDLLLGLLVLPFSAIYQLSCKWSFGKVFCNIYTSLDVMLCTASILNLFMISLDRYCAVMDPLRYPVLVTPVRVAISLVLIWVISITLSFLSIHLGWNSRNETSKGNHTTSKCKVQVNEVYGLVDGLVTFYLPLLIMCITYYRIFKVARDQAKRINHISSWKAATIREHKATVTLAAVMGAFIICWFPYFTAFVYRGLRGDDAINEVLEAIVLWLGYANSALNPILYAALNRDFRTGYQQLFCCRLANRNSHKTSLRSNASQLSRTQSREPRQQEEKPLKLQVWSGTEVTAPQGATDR
QUANTITY_NAME: Ki

{"SMILES_NOTATION": "CNC(=O)c1ccccc1Nc1nc(Nc2ccc3c(c2OC)CCC[C@H](N2CCN(CCO)CC2)C3)ncc1Cl", "QUANTITY_NAME": "Ki", "MEASURED": "5.2 µM"}

----------
# TARGET_DESC: ALK (Homo sapiens)
# Sequence (Q9UM73 with tags, fused parts or gaps): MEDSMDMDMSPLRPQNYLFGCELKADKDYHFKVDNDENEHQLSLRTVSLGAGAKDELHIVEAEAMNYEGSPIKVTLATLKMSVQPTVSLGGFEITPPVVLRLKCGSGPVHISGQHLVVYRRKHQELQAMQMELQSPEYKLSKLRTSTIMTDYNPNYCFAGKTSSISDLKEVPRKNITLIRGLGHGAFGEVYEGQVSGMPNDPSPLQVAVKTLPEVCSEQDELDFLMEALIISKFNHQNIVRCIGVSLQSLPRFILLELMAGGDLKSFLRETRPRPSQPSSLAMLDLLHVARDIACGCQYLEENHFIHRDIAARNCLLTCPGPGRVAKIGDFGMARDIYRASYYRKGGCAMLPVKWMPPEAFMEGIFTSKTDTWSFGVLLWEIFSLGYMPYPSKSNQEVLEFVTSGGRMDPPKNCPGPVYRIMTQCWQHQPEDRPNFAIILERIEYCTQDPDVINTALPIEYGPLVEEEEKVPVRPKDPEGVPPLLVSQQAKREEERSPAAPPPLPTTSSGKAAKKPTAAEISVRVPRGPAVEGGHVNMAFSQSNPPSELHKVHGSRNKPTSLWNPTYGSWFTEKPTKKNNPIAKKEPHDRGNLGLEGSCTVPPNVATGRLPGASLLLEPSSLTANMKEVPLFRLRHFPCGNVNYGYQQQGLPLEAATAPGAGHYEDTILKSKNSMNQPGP
# ASSAY_REMARKS: ALK cellular assay
# Type: cell-based
# MEASUREMENT_CONTEXT: read-out: ALK cellular IC50
pIC50: −log10 of the molar value.
QUANTITY_NAME: pIC50

{"SMILES_NOTATION": "COc1c(Nc2ncc(Cl)c(N[C@H]3[C@@H](C(N)=O)[C@@H]4C=C[C@H]3C4)n2)ccc2c1CC[C@@H](N1CCOCC1)CC2", "TARGET_DESC": "ALK (Homo sapiens)", "MEASURED": 7.52}

----------
# ASSAY_REMARKS: Monkey bioavailability
# MEASUREMENT_CONTEXT: in vivo, po, 10 mg/kg
Readings of bioavailability for the listed compounds
QUANTITY_NAME: bioavailability (%)

{"SMILES_NOTATION": "COc1c(Nc2ncc(Cl)c(N[C@H]3[C@@H](C(N)=O)[C@@H]4C=C[C@H]3C4)n2)ccc2c1CC[C@@H](N1CCOCC1)CC2", "QUANTITY_NAME": "bioavailability", "MEASURED": 16}
{"SMILES_NOTATION": "CNC(=O)c1ccccc1Nc1nc(Nc2ccc3c(c2OC)CCC[C@H](N2CCN(CCO)CC2)C3)ncc1Cl", "QUANTITY_NAME": "bioavailability", "MEASURED": 50}

----------
# pIC50 per entry for CYP 2C19 (Homo sapiens)
pIC50: −log10 of the molar value.
QUANTITY_NAME: pIC50

{"SMILES_NOTATION": "CNC(=O)c1ccccc1Nc1nc(Nc2ccc3c(c2OC)CCC[C@H](N2CCN(CCO)CC2)C3)ncc1Cl", "QUANTITY_NAME": "pIC50", "COMPARISON_SYMBOL": "<", "MEASURED": 4.70}
{"SMILES_NOTATION": "COc1c(Nc2ncc(Cl)c(N[C@H]3[C@@H](C(N)=O)[C@@H]4C=C[C@H]3C4)n2)ccc2c1CC[C@@H](N1CCOCC1)CC2", "QUANTITY_NAME": "pIC50", "COMPARISON_SYMBOL": "=", "MEASURED": 5.17}
